# Test system: IL-2 stimulated pSTAT5 in Tall-1 T cells
# procedure text: Cellular JAK3 potency assay: inhibition of IL-2 stimulated pSTAT5 in Tall-1 T cells
# Type: cell-based, human
# measurement parameters: Homo sapiens, TALL-1, IL-2 stimulated pSTAT5 in Tall-1 T cells; read-out: Tall-1 (pIC50) (converted)
result type: IC50

Known results for compounds:
Enquiry: What measured IC50 goes with C=CC(=O)N1CC(F)(COc2nc(-c3ccc(O)cc3)cc3[nH]ncc23)C1 [Compound 3-90] ?
Return: < 0.0316 µM

Enquiry: Another compound to look at: CN(C)C/C=C/C(=O)N1CC(C(C)(C)Oc2cc(-c3ccc(O)c(Cl)c3)cc3[nH]ncc23)C1 [Compound 3]
Return: 0.0316 to 0.2 µM

New cases:
Enquiry: # IC50 lookup, item C=CC(=O)N1CC(COc2cc(-c3ccc(O)c(F)c3)cc3[nH]ncc23)C1 [Compound 3-4]
Return: < 0.0316 µM

Enquiry: What would you report for C=CC(=O)N1CC[C@H](Oc2cc(-c3ccc(O)cc3)cc3[nH]nc(C(F)(F)F)c23)C1 [Compound 1-43] ?
Return: < 0.0316 µM

---

# measured target: JAK1 (Homo sapiens, UniProt P23458)
# Construct: GST; purchased Life Technologies
# Sequence (P23458 whole entry): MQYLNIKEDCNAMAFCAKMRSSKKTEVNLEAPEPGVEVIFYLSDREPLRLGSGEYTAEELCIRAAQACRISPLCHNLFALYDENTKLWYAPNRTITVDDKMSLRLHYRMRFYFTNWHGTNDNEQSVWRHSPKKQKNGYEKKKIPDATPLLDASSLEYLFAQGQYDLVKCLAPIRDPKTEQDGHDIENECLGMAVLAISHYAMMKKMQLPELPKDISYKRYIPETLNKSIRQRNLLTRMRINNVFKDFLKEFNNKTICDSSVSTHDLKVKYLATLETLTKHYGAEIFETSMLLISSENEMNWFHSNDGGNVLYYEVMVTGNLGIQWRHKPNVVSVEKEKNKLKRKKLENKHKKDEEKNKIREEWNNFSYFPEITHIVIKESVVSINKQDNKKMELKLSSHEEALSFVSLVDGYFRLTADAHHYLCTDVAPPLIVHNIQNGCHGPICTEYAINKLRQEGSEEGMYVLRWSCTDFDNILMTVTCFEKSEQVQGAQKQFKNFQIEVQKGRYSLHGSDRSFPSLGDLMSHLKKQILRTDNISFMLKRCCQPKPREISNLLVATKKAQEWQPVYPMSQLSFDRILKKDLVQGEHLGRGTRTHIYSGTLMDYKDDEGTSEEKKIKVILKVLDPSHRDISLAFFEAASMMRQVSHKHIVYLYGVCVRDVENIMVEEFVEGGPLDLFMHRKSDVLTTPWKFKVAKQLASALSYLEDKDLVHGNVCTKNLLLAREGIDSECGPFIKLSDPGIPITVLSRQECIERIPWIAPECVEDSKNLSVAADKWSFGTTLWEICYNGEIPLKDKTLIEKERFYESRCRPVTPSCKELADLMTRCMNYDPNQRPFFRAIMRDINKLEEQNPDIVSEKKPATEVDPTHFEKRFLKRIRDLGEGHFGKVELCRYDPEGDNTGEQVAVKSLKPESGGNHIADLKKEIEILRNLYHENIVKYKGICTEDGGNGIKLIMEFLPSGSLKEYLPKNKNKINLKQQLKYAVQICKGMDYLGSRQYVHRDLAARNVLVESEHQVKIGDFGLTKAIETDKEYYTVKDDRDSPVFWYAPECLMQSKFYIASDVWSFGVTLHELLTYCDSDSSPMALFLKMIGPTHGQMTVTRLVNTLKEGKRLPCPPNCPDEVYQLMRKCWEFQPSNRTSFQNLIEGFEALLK
# procedure text: Biochemical JAK1 kinase assay (LanthaScreen)
# measurement parameters: read-out: JAK 1 (pKi) (converted)
result type: Ki

Enquiry: # input molecule: C=CC(=O)N1CCC(Oc2nc(-c3ccc(O)c(Cl)c3)nc3[nH]ncc23)CC1 ; wanted: its Ki
Return: > 0.1 µM

Moving on to the next molecule.
Enquiry: Please report the recorded Ki for C=CC(=O)N1C[C@@H](Oc2cc(-c3ccc(O)cc3)cc3[nH]ncc23)C[C@H]1C .
Return: > 0.1 µM

---

# measured target: JAK1 (Homo sapiens, UniProt P23458)
# Construct: GST; purchased Life Technologies
# procedure text: Biochemical JAK1 kinase assay (LanthaScreen)
# measurement parameters: read-out: JAK 1 (pKi) (converted)
Catalogue of Ki values

Enquiry: Recorded Ki for C=CC(=O)N1CCC(S(=O)(=O)c2cc(-c3ccc(O)cc3)cc3[nH]ncc23)CC1 [Compound 12-8] , please?
Return: > 0.1 µM

---

Reported Ki is given for each of the following compounds.
# measured target: JAK3 (Homo sapiens)
# procedure text: Biochemical JAK3 kinase assay (LanthaScreen)
# Parameters: GST; purchased Life Technologies
# measurement parameters: read-out: JAK 3 (pKi) (converted)

Below, each entry is followed by its recorded Ki result.
Enquiry: Which Ki is reported for this compound? C=CC(=O)N1CCS(=O)(=O)C(C(=O)Nc2cc(-c3ccc(O)cc3)cc3[nH]ncc23)C1 (stereo not shown) [Compound 12-45]
Return: < 0.1 nM

Enquiry: Lookup CN(C)C/C=C/C(=O)N1CC(F)(COc2nc(-c3ccc(O)c(Cl)c3)nc3[nH]ncc23)C1 [Compound 3-50]
Return: 0.1 to 1 nM

Enquiry: Please give the result for C=CC(=O)N1CCC(Oc2nc(-c3ccc(O)c(Cl)c3)nc3[nH]ncc23)CC1 [Compound 6-22] too.
Return: 0.1 to 1 nM

Enquiry: Cool, now C=CC(=O)N1CC(C#N)(COc2nc(-c3ccc(O)c(F)c3)nc3[nH]ncc23)C1 [Compound 3-110]
Return: 0.1 to 1 nM

Enquiry: Could you do the same for CN(C)C/C=C/C(=O)N1CC(COc2cc(-c3ccc(O)c(Cl)c3)cc3[nH]ncc23)C1 [Compound 3-2] , please?
Return: 0.1 to 1 nM

Enquiry: Please answer likewise for C=CC(=O)N1CCOC[C@H]1C(=O)Nc1cc(-c2ccc(O)cc2)cc2[nH]ncc12 [Compound 12-63]
Return: 0.1 to 1 nM

Further cases:
Enquiry: Would you kindly share the measured Ki for CN(C)C/C=C/C(=O)N1CC(C(C)(C)Oc2cc(-c3ccc(O)c(F)c3)cc3[nH]ncc23)C1 [Compound 3-27] ?
Return: < 0.1 nM

Enquiry: Next: C=CC(=O)N1CC[C@H](Oc2nc(-c3ccc(O)c(Cl)c3)cc3[nH]nc(C)c23)C1 [Compound 1-35]
Return: < 0.1 nM

---

Ki: recorded values
# measured target: JAK3 (Homo sapiens, UniProt P52333)
# procedure text: Biochemical JAK3 kinase assay (LanthaScreen)
# Parameters: GST; purchased Life Technologies
# measurement parameters: read-out: JAK 3 (pKi) (converted)

Below, 8 molecules whose answers are already recorded.
Enquiry: Can you share its Ki? I mean this molecule: CN1CCC[C@H]1/C=C/C(=O)N1CC(COc2cc(-c3ccc(O)cc3)cc3[nH]ncc23)C1
Return: 0.1 to 1 nM

Enquiry: What about C=CC(=O)N1CCC(Oc2nc(-c3ccc(O)c(F)c3)nc3[nH]ncc23)CC1 ?
Return: 0.1 to 1 nM

Enquiry: Try C#CC(=O)N1CC(COc2cc(-c3ccc(O)cc3)cc3[nH]ncc23)C1 next.
Return: < 0.1 nM

Enquiry: Entry to check: C=CC(=O)N1CCC(Oc2nc(-c3ccc(O)cc3)nc3[nH]ncc23)CC1
Return: 0.1 to 1 nM

Enquiry: Same again, this time with C=CC(=O)N1CC[C@H](Oc2cc(-c3ccc(O)c(Cl)c3)nc3[nH]nc(C)c23)C1
Return: 0.1 to 1 nM

Enquiry: Same question, C=CC(=O)N1CC[C@@H]1COc1cc(-c2ccc(O)cc2)cc2[nH]ncc12 this time
Return: 0.1 to 1 nM

Enquiry: Also check CN(C)C/C=C/C(=O)N1CC(COc2cc(-c3ccc(O)c(F)c3F)cc3[nH]ncc23)C1
Return: < 0.1 nM

Enquiry: Request: CN(C)C/C=C/C(=O)N1CC(COc2cc(-c3ccc(O)cc3)cc3[nH]ncc23)C1
Return: < 0.1 nM

--- query ---
Enquiry: Dear colleague, I am looking for the recorded Ki of the following molecule: CN(C)C/C=C/C(=O)N1CC[C@H](Oc2cc(-c3ccc(O)cc3)cc3[nH]ncc23)C1
Return: 0.1 to 1 nM

---

We begin with a simple list: items and their reported Ki.
# measured target: JAK3 (Homo sapiens, UniProt P52333)
# Sequence (P52333 1-1124): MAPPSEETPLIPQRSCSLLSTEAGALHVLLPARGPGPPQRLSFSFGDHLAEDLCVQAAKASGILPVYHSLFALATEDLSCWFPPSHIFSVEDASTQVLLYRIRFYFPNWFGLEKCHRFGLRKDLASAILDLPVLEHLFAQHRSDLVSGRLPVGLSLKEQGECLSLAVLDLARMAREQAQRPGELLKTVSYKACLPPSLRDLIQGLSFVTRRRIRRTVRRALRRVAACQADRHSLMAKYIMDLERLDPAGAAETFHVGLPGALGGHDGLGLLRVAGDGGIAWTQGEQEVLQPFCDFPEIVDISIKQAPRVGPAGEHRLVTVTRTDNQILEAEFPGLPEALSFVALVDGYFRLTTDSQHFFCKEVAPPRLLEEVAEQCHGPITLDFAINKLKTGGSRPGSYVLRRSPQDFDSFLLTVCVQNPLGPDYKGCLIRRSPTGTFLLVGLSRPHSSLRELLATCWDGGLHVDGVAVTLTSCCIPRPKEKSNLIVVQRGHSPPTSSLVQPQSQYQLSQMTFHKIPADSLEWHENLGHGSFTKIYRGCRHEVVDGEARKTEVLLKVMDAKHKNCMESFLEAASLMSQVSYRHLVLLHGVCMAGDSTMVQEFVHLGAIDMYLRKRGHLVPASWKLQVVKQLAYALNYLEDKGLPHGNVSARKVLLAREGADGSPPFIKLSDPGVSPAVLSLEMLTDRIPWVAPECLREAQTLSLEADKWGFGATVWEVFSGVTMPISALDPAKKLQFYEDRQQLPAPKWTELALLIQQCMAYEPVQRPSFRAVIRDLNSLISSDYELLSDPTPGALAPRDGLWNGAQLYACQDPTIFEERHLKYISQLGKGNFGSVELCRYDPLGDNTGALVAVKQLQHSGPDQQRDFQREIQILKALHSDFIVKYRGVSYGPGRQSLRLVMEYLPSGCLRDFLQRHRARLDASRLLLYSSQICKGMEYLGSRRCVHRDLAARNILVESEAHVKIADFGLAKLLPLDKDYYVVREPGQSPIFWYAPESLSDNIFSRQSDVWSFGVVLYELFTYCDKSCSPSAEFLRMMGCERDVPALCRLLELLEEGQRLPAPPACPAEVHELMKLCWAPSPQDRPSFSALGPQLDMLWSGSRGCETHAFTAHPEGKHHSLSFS
# procedure text: Biochemical JAK3 kinase assay (LanthaScreen)
# Design: GST; purchased Life Technologies
# measurement parameters: read-out: JAK 3 (pKi) (converted)

Enquiry: Recorded Ki for C=CC(=O)N1CC[C@H](Oc2nc(-c3ccc(O)cc3)nc3[nH]ncc23)C1 , please?
Return: 100 to 1000 pM

Next:
Enquiry: Quick check: Ki of CN(C)C/C=C/C(=O)N1CC(COc2nc(-c3ccc(O)c(F)c3)cc3[nH]ncc23)C1 ?
Return: < 100 pM

Enquiry: Also need C=CC(=O)N1CC[C@H](Oc2cc(-c3ccc(O)cc3)cc3[nH]ncc23)C[C@@H]1C , thanks.
Return: < 100 pM
